Molecular target: T1, TBD-11 (HC R98A)
T1 construct: Fab; also called HC R98A mutant
T1 sequence (VH, as listed by the source, chain 1 of 2): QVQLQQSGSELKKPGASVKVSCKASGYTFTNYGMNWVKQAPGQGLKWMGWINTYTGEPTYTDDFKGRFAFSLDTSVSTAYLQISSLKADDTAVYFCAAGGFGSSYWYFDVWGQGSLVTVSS
T1 sequence (VL, as listed by the source, chain 2 of 2): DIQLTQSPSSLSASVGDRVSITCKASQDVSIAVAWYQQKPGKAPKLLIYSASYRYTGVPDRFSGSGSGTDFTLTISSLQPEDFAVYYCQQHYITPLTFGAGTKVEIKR
Experiment: competition ELISA, peptide vs Fab binding to captured biotin-TROP2
Where no end group is shown, it is not given here.
quantityKind: IC50 (nM)

- binder: "IDFCLIYNWPVCDT (cysteine pairing not given here; also: biotinylated, site not given here) [Peptide-63]"
  IC50 / nM: 6810
- binder: "IDFCAVYKWPVCQV (cysteine pairing not given here; also: biotinylated, site not given here) [Peptide-62]"
  IC50 / nM: 4870
- binder: "VDFCGLYHWPICYQVD (cysteine pairing not given here; also: biotinylated, site not given here) [Peptide-39]"
  IC50 / nM: 1640
- binder: "PDFCAVYRWPICYQ (cysteine pairing not given here; also: biotinylated, site not given here) [Peptide-64]"
  IC50 / nM: 1780
- binder: "VDFCALYHWPICYQ (cysteine pairing not given here; also: biotinylated, site not given here) [Peptide-43]"
  IC50 / nM: 770

a: VDFCGLYHWPICYQVY (cysteine pairing not given here; also: biotinylated, site not given here) [Peptide-41]
b: VDFCGLYHWPICYQ (cysteine pairing not given here; also: biotinylated, site not given here) [Peptide-8]
Req: Hey, which is lower on measured IC50, a or b ? Give the label of your selection.
Resp: b
